- target.entity: Can2-CA (Cryptococcus neoformans, UniProt Q3I4V7)
- Construct: recombinant beta-CA, produced as reported earlier; dimer in the docking model
- Sequence (Q3I4V7 1-239): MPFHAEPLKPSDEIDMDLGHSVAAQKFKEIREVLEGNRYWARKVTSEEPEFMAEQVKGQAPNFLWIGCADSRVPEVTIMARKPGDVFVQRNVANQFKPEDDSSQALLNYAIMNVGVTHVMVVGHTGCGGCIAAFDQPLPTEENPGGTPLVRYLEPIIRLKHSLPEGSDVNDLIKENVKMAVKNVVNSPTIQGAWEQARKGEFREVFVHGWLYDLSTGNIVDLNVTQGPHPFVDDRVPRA
- assay.comment: stopped-flow CO2 hydration assay
- Type: biochemical
- condition.set: read-out: Inhibition constant, Ki (μM) / β-family / Can2
Give Ki for every item shown.
The reply should be a number in µM, with the unit left off.

For `NC(=O)c1ncc[n+]([O-])c1N` on Can2-CA (Cryptococcus neoformans, UniProt Q3I4V7), measured Ki was 1.1

Measured on Can2-CA (Cryptococcus neoformans, UniProt Q3I4V7), `Cc1cnc(C(N)=O)c[n+]1[O-]` has a documented Ki of 1.3

Note to self: Ki of `NC(=O)c1ccc[n+]([O-])c1N` with Can2-CA (Cryptococcus neoformans, UniProt Q3I4V7) was 1.7

###

So I've got a bunch of compounds here, and I need their Ki values.
- target.entity: SspCA (Sulfurihydrogenibium sp. YO3AOP1, UniProt B2V8E3)
- Construct: recombinant bacterial alpha-CA, produced as reported earlier
- assay.comment: stopped-flow CO2 hydration assay
- Type: biochemical
- condition.set: read-out: Inhibition constant, Ki (μM) / α-family / Ssp
Reply numerically in µM, unit not repeated.

Summary for this compound, `CCc1cc(C(C)C)[n+]([O-])c(N)c1C(N)=O` : Ki is 58.5

For `CCc1cc(C)[n+]([O-])c(N)c1C(N)=O` the compound record lists Ki as 42.2

###

Could you please report measured Ki for the items listed next?
- target.entity: MgCA (Malassezia globosa, UniProt A8Q1N3)
- Construct: gene MGL_1814
- Sequence (A8Q1N3 1-241): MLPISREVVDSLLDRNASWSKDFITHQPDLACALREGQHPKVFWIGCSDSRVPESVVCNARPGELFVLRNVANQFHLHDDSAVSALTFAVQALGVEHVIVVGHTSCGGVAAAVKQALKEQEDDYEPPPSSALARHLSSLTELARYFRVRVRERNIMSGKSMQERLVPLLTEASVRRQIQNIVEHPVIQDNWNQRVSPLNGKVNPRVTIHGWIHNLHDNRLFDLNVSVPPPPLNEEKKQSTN
- assay.comment: stopped-flow CO2 hydration assay
- Type: biochemical
- condition.set: read-out: Inhibition constant, Ki (μM) / β-family / Mg
// units = µM; emit number, no label

Short answer on MgCA (Malassezia globosa, UniProt A8Q1N3) for `NC(=O)c1ncc[n+]([O-])c1N` , Ki: 6.7

Entry `CC(C)c1cc(-c2ccccc2)c(C(N)=O)c(N)[n+]1[O-]` under MgCA (Malassezia globosa, UniProt A8Q1N3) had Ki of 46.2

###

recorded.endpoint: pKi
A value of pKi is the negative decimal logarithm of a concentration given in moles per litre.

CCc1cc(-c2ccccc2)c(C(N)=O)c(N)[n+]1[O-] [compound 21, 21] on VchCA (Vibrio cholerae, UniProt A0A086SLX8) gives pKi = 5.66

The molecule NC(=O)c1ccc[n+]([O-])c1N [compound 5, 5] , tested on VchCA (Vibrio cholerae, UniProt A0A086SLX8), showed pKi of 5.68

Fill in: VchCA (Vibrio cholerae, UniProt A0A086SLX8) pKi for CCc1cc(C(C)C)c(C(N)=O)c(N)[n+]1[O-] [compound 13, 13] = 5.55

###

- target.entity: hCA IX (Homo sapiens, UniProt Q16790)
- Construct: gene CA9
- assay.comment: stopped-flow CO2 hydration assay
- Format: biochemical
- condition.set: read-out: Inhibition constant, Ki (μM) / α-family / CAI
recorded.endpoint: Ki

Simply: NC(=O)c1ncc[n+]([O-])c1N [compound 30, 30] , hCA IX (Homo sapiens, UniProt Q16790), Ki = > 100 µM
